Overview of recorded pIC50 for various molecules
# Tested on: HN
# ASSAY_OVERVIEW: cells;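 note: growth inhibition of HN cells, read out by a cell viability assay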
# Format: functional, cell-based
# RECORDED_CONDITIONS: Homo sapiens
# Description: SANGER: Inhibition of human HN cell growth in a cell viability assay.
pIC50: −log10 of the molar value.
ASSAY_READOUT: pIC50

CC(O)(CS(=O)(=O)c1ccc(F)cc1)C(=O)Nc1ccc(C#N)c(C(F)(F)F)c1 (stereo not drawn) [BICALUTAMIDE] = < 5.99
O=c1cc(N2CCOCC2)oc2c(-c3cccc4c3sc3ccccc34)cccc12 = < 5.70
CCCS(=O)(=O)Nc1ccc(F)c(C(=O)c2c[nH]c3ncc(Cl)cc23)c1F [PLX-4720] = < 5.00
